Listed below: inhibition at 30 µM values for each entry.
Tested on: HeLa
Assay: cells
Set-up: MTT antiproliferative assay, absorbance at 545 nm, inhibition versus untreated control
Details: Homo sapiens, 30 uM, read-out: Growth inhibition (%) HeLa
measure: inhibition at 30 µM (%)

1. C[C@]12CC[C@@H]3c4ccc(OCc5ccccc5)cc4CC[C@H]3[C@@H]1C[C@H](CN=[N+]=[N-])[C@@H]2O : 93.1
2. C[C@]12CC[C@@H]3c4ccc(OCc5ccccc5)cc4CC[C@H]3[C@@H]1C[C@@H](CN=[N+]=[N-])[C@@H]2O : 93.3
3. C[C@]12CC[C@@H]3c4ccc(OCc5ccccc5)cc4CC[C@H]3[C@@H]1C[C@@H](CN=[N+]=[N-])[C@H]2O : 52.9
4. C[C@]12CC[C@@H]3c4ccc(OCc5ccccc5)cc4CC[C@H]3[C@@H]1C[C@H](CN=[N+]=[N-])[C@H]2O : 55.5
